Data origin, for the record: patent US12264134B2

Molecular target: IDO1 (Homo sapiens, UniProt P14902)
Sequence (P14902 whole entry): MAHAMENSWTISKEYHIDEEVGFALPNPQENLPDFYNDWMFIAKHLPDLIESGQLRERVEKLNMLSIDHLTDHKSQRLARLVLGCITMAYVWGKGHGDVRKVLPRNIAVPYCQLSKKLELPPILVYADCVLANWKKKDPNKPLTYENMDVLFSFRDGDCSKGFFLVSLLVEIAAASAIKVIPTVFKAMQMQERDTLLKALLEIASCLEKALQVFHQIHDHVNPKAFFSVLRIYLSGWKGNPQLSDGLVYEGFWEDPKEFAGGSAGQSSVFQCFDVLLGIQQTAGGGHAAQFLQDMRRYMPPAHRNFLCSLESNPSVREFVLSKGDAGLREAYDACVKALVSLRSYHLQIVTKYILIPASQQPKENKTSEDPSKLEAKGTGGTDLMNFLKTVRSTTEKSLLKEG
Assay: IDO1 Cellular Assay in HeLa Cells Stimulated with IFNγ
Type: cell-based
Details: read-out: HeLa Cell Potency, IC50
Hi! Just check whether IC50 is below 6 nM. Below gives 1, equal or above gives 0.

Query: Could you please tell me whether IC50 recorded for `Cc1c(N2CCN(C(=O)Cn3nc(C(=O)N4CCC(O)CC4)c4c3C[C@H]3C[C@@H]43)CC2)cccc1C(F)(F)F` is less than 6 nM?
Reply: 1

Query: Decide: IC50 of `Cc1cccc(N2CCN(C(=O)Cn3nc(C(=O)N4CCC(N5CCC5)CC4)c4c3C[C@H]3C[C@@H]43)CC2)c1C` strictly below 6 nM?
Reply: 1

Query: I wonder whether `Cc1cccc(N2CCN(C(=O)Cn3nc(C(=O)N4CCC5(CC4)COC(=O)N5)c4c3CCC4)CC2)c1C` has IC50 below 6 nM. Can you tell?
Reply: 0

Query: Lab log: compare recorded IC50 with 6 nM; is it strictly lower for `Cc1c(F)ccc(N2CCN(C(=O)Cn3nc(C(=O)N4CCN(C(=O)CO)CC4)c4c3C[C@H]3C[C@@H]43)C3(CC3)C2)c1C` ?
Reply: 1

Query: Does the reported IC50 of the following compound sit strictly below 6 nM? `Cc1cccc(N2CCN(C(=O)Cn3nc(C(=O)N4CCC(C(C)(C)O)CC4)c4c3CCC4)CC2)c1C`
Reply: 1

Query: Decide: IC50 of `Cc1cccc(N2CCN(C(=O)Cn3nc(C(=O)N4CCC5(CC4)C[C@H](C)OC5=O)c4c3CCC4)CC2)c1C` strictly below 6 nM?
Reply: 0

Query: Lab note: confirm whether the reported IC50 for this compound is below 6 nM, equality not counting. compound: `Cc1cc(F)ccc1N1CCN(C(=O)Cn2nc(C(=O)N3C[C@@H](C)O[C@@H](C)C3)c3c2CCC3)CC1`
Reply: 0

Query: Record `C[C@@H]1CN(C(=O)c2nn(CC(=O)N3CCN(c4ccccc4C4CC4)CC3)c3c2CCC3)C[C@H](C)O1` : is its IC50 strictly below 6 nM?
Reply: 0

Query: Regarding `Cc1c(F)cccc1N1CCN(C(=O)Cn2nc(C(=O)N3CCC(O)CC3)c3c2CCC3)CC1` , kindly confirm whether its IC50 is beneath 6 nM.
Reply: 0

Query: IC50 strictly < 6 nM for this compound? `Cc1cccc(N2CCN(C(=O)Cn3nc(C(=O)N4CCC(O)(CN5CCCCC5)CC4)c4c3C[C@H]3C[C@@H]43)CC2)c1C`
Reply: 0

Query: Bench note: check whether Cc1cccc(N2CCN(C(=O)Cn3nc(C(=O)N4CCCC(N5CCNC5=O)C4)c4c3C[C@H]3C[C@@H]43)CC2)c1C (stereo partly drawn) shows IC50 below 6 nM
Reply: 0

Query: For this compound, is IC50 lower than 6 nM? `Cc1cccc(N2CCN(C(=O)Cn3nc(C(=O)N4CC[C@H](O)[C@@H](F)C4)c4c3CCCCC4)CC2)c1C`
Reply: 0

Query: Report whether reported IC50 is lower than 6 nM (strictly) for Cc1cccc(N2CCN(C(=O)Cn3nc(C(=O)N4CCC(F)(CO)CC4)c4c3CCC4)CC2)c1C [Example 293]
Reply: 1

Query: Lab log: compare recorded IC50 with 6 nM; is it strictly lower for Cc1cccc(N2CCN(C(=O)Cn3nc(C(=O)N4CC[C@@H](O)C[C@@H]4C)c4c3C[C@H]3C[C@@H]43)CC2)c1C [Example 290] ?
Reply: 1

Query: Here's an entry: Cc1c(Cl)cccc1N1CCN(C(=O)Cn2nc(C(=O)N3CCN(C)C(C)C3)c3c2CCC(F)(F)C3)CC1 (stereo not drawn) . Is its IC50 below 6 nM?
Reply: 0

Query: Threshold test, IC50 < 6 nM: Cc1cccc(N2CCN(C(=O)Cn3nc(C(=O)N4CCC5C(C4)NC(=O)N5C)c4c3C[C@H]3C[C@@H]43)CC2)c1C (stereo partly drawn)
Reply: 0

Query: Is 6 nM strictly greater than the compound's reported IC50? compound: `Cc1c(Cl)cccc1N1CCN(C(=O)Cn2nc(C(=O)N3CCC(O)CC3)c3c2CCC(F)(F)C3)CC1`
Reply: 1

Query: A record lists `COc1c(F)cccc1N1CCN(C(=O)Cn2nc(C(=O)N3C[C@@H](C)O[C@@H](C)C3)c3c2CCC3)CC1` . Is its IC50 below 6 nM?
Reply: 0

Query: Criterion: IC50 strictly below 6 nM. Is it met by `Cc1cccc(N2CCN(C(=O)Cn3nc(C(=O)N4CC[C@@H](O)[C@@H](C)C4)c4c3C[C@H]3C[C@@H]43)CC2)c1C` ?
Reply: 1

Query: Is it true that IC50 reported for `Cc1cccc(N2CCN(C(=O)Cn3nc(C(=O)N4CC[C@H](O)[C@H](F)C4)c4c3C[C@H]3C[C@@H]43)C(C)(C)C2)c1C` is less than 6 nM?
Reply: 0

Query: # check: IC50 < 6 nM for Cc1cccc(N2CCN(C(=O)Cn3nc(C(=O)N4CCC(F)(F)[C@@H](O)C4)c4c3CCC4)CC2)c1C (single isomer, unassigned)
Reply: 0

Query: Determine whether this compound shows IC50 lower than 6 nM (ties excluded): Cc1cccc(N2CCN(C(=O)Cn3nc(C(=O)N4CC5CCC4CO5)c4c3CCC4)CC2)c1C (stereo not drawn)
Reply: 0

Query: Input `Cc1cccc(N2CCN(C(=O)Cn3nc(C(=O)N4CCC(C)(CO)CC4)c4c3CCC4)CC2)c1C` ; condition: IC50 strictly below 6 nM. Does it hold?
Reply: 1

Query: Bench note: check whether `Cc1c(F)cccc1N1CCN(C(=O)Cn2nc(C(=O)N3C[C@@H](C)O[C@@H](C)C3)c3c2CCC3)CC1` shows IC50 below 6 nM
Reply: 0

Query: Given the entry Cc1cccc(N2CCN(C(=O)Cn3nc(C(=O)N4CCC(O)C(F)C4)c4c3CCC4)C3(CC3)C2)c1C (single isomer, unassigned) [Example 395] , would its reported IC50 be below 6 nM?
Reply: 0

Query: In the record for `Cc1cccc(N2CCN(C(=O)Cn3nc(C(=O)N4CC[C@@H](O)[C@H](F)C4)c4c3CCC4)CC2)c1C` , is IC50 less than 6 nM?
Reply: 1

Query: Here's an entry: Cc1c(Cl)cccc1N1CCN(C(=O)Cn2nc(C(=O)N3CC[C@H](O)[C@H](F)C3)c3c2CCC(F)C3)CC1 (stereo partly drawn) [Example 369] . Is its IC50 below 6 nM?
Reply: 0
